Reference for the values: ChEMBL document CHEMBL1938334

Reported CC50 values for the following compounds.
# assayOverview: Cytotoxicity against BHK21 cells after 48 to 96 hrs by MTT assay
# Format: cell-based, Mesocricetus auratus, BHK-21
# conditions: hamster

# lineNotation, CC50
records = [
    ("Clc1c2ncccc2cc2nc[nH]c12", "> 100 µM"),
    ("Oc1ccnc2c(Cl)c3[nH]c(-c4ccccc4)nc3cc12", "75 µM"),
    ("CC(C)c1nc2cc3cccnc3c(Cl)c2[nH]c1=O", "> 100 µM"),
    ("O=[N+]([O-])c1c2cccnc2c(Cl)c2[nH]n[n+]([O-])c12", "> 100 µM"),
    ("O=c1[nH]c2cc3c(O)ccnc3c(Cl)c2nc1-c1ccccc1", "> 100 µM"),
]

Could you now look at the following compound, please?
Query: Look up and report measured CC50 for this entry: Nc1ccc(-c2nc3cc4cccnc4c(Cl)c3[nH]2)cc1
Reply: 42 µM

* * *

Reported CC50 at 96 h values for the following compounds.
# assayOverview: Cytotoxicity against human MT4 cells after 96 hrs by MTT assay
# Format: cell-based

Before answering, review these 2 worked examples.
# lineNotation, CC50 at 96 h
rows = [
    ("O=[N+]([O-])c1ccc(-c2nc3cc4cccnc4c(Cl)c3[nH]2)cc1", "> 100 µM"),
    ("Clc1c2ncccc2cc2nc[nH]c12", "> 100 µM"),
]

Query: Look up and report measured CC50 at 96 h for this entry: Clc1c2ncccc2cc2nn[nH]c12
Reply: > 100 µM

Query: Look up and report measured CC50 at 96 h for this entry: c1cnc2cc3nccnc3cc2c1
Reply: > 100 µM

* * *

# assayOverview: Cytotoxicity against african green monkey Vero 76 cells after 48 to 96 hrs by crystal violet staining
# Type: cell-based
# conditions: chlorocebus sabaeus
parameter: CC50

Before answering, review these 6 worked examples.
# lineNotation, CC50
records = [
    ("[O-][n+]1n[nH]c2c(Cl)c3ncccc3cc21", "> 100 µM"),
    ("Clc1c2ncccc2cc2nc(CBr)c(CBr)nc12", "> 100 µM"),
    ("c1cnc2cc3[nH]cnc3cc2c1", "> 100 µM"),
    ("Clc1ccc(-c2nc3cc4cccnc4cc3[nH]2)cc1Cl", "> 100 µM"),
    ("O=c1cnn([C@@H]2O[C@H](CO)[C@@H](O)[C@H]2O)c(=O)[nH]1", "≥ 12.5 µM"),
    ("CC(C)c1nc2c(Cl)c3ncccc3cc2[nH]c1=O", "> 100 µM"),
]

Query: Look up and report measured CC50 for this entry: N#CCn1nnc2c(Cl)c3ncccc3cc21
Reply: > 100 µM

Query: Look up and report measured CC50 for this entry: Nc1nc2c(ncn2COCCO)c(=O)[nH]1
Reply: > 100 µM

Query: Look up and report measured CC50 for this entry: CC(=O)n1nnc2c(Cl)c3ncccc3cc21
Reply: > 100 µM

Query: Look up and report measured CC50 for this entry: c1ccc(-c2nc3cc4cccnc4cc3[nH]2)cc1
Reply: > 100 µM

Query: Look up and report measured CC50 for this entry: O=[N+]([O-])c1ccc(-c2nc3cc4cccnc4cc3[nH]2)cc1
Reply: 95 µM

Query: Look up and report measured CC50 for this entry: O=C(CCl)Cn1nnc2c(Cl)c3ncccc3cc21
Reply: > 100 µM

Query: Look up and report measured CC50 for this entry: Clc1c2ncccc2cc2nc[nH]c12
Reply: > 100 µM

Query: Look up and report measured CC50 for this entry: Oc1ccnc2c(Cl)c3[nH]nnc3cc12
Reply: > 100 µM

Query: Look up and report measured CC50 for this entry: Oc1ccnc2c(Cl)c3nccnc3cc12
Reply: 90 µM

Query: Look up and report measured CC50 for this entry: Clc1c2ncccc2cc2ncc(-c3ccccc3)nc12
Reply: > 100 µM

Query: Look up and report measured CC50 for this entry: c1ccc(-c2ccc(-c3nc4cc5cccnc5cc4[nH]3)cc2)cc1
Reply: 80 µM

Query: Look up and report measured CC50 for this entry: CC(=O)Nc1ccc(-c2nc3cc4cccnc4c(Cl)c3[nH]2)cc1
Reply: > 100 µM

Query: Look up and report measured CC50 for this entry: COc1c(C)c2c(c(O)c1C/C=C(\C)CCC(=O)O)C(=O)OC2
Reply: ≥ 12.5 µM

Query: Look up and report measured CC50 for this entry: Clc1c2ncccc2cc2nccnc12
Reply: 90 µM

Query: Look up and report measured CC50 for this entry: C#C[C@@]1(O)[C@H](O)[C@@H](CO)O[C@H]1n1ccc(N)nc1=O
Reply: > 100 µM

Query: Look up and report measured CC50 for this entry: Nc1ccc(-c2nc3cc4cccnc4c(Cl)c3[nH]2)cc1
Reply: > 100 µM

Query: Look up and report measured CC50 for this entry: CC(C)c1nc2cc3cccnc3c(Cl)c2[nH]c1=O
Reply: > 100 µM
